Reported Kd by item:
assay.system: T1, recombinant MST1R-Fc fusion protein (containing 25-571 amino acid sequence of human MST1R, R&D) (human, UniProt Q04912 25-571)
T1 construct: Bought from R&D systems; also called immobilized recombinant human MST1R; not shown: Fc part of the bought fusion protein (R&D systems)
T1 chain: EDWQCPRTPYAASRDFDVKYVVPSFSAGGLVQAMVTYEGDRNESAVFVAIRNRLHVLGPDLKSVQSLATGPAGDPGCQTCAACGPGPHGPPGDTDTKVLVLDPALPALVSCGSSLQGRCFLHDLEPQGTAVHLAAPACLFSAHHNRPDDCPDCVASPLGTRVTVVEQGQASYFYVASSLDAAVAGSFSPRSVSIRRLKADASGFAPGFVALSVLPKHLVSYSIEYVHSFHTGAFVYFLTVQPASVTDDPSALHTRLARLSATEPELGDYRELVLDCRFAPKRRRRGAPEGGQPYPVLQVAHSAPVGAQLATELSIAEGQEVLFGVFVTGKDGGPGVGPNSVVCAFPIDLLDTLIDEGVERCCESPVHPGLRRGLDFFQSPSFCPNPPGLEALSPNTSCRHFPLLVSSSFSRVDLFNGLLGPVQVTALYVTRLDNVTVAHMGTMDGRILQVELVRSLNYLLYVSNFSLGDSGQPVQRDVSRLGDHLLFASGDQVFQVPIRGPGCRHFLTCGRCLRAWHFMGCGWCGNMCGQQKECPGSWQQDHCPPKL
procedure.text: Solution Equilibrium Titration (SET, ECL based), Fab
Form entry: value (nM) — number only.

Consider the reported Kd for these binders:
{"columns": ["binder", "readout.units", "Kd"],
 "data": [
  ["MOR07925 Fab (Fab, V domains shown, carries two C-terminal tags (FLAG and Strep-tag II); also called Fab MOR07925) VH: QVQLVESGGGLVQPGGSLRLSCAASGFTFNSYSMSWVRQAPGKGLEWVSYISSRSSTTYYADSVKGRFTISRDNSKNTLYLQMNSLRAEDTAVYYCARGYFHGMDYWGQGTLVTVSS VL: DIVLTQSPATLSLSPGERATLSCRASQSVSFDYLGWYQQKPGQAPRLLIYGASNRATGVPARFSGSGSGTDFTLTISSLEPEDFATYYCLQYFNPPHTFGQGTKVEIKR", "nM", 0.01],
  ["MOR07924 Fab (Fab, V domains shown, carries two C-terminal tags (FLAG and Strep-tag II); also called Fab MOR07924) VH: QVQLVESGGGLVQPGGSLRLSCAASGFTFNSYSMSWVRQAPGKGLEWVSYISSRSSTTYYADSVKGRFTISRDNSKNTLYLQMNSLRAEDTAVYYCARGYFHGMDYWGQGTLVTVSS VL: DIVLTQSPATLSLSPGERATLSCRASQSVSFDYLGWYQQKPGQAPRLLIYGASNRATGVPARFSGSGSGTDFTLTISSLEPEDFATYYCQQYNINPFTFGQGTKVEIKR", "nM", 0.03],
  ["MOR07926 Fab (Fab, V domains shown, carries two C-terminal tags (FLAG and Strep-tag II); also called Fab MOR07926) VH: QVQLVESGGGLVQPGGSLRLSCAASGFTFNSYSMSWVRQAPGKGLEWVSYISSRSSTTYYADSVKGRFTISRDNSKNTLYLQMNSLRAEDTAVYYCARGYFHGMDYWGQGTLVTVSS VL: DIVLTQSPATLSLSPGERATLSCRASQSVSFDYLGWYQQKPGQAPRLLIYGASNRATGVPARFSGSGSGTDFTLTISSLEPEDFATYYCFQALIMPFTFGQGTKVEIKR", "nM", 0.04],
  ["MOR07923 Fab (Fab, V domains shown, carries two C-terminal tags (FLAG and Strep-tag II); also called Fab MOR07923) VH: QVQLVESGGGLVQPGGSLRLSCAASGFTFNSYSMSWVRQAPGKGLEWVSYISSRSSTTYYADSVKGRFTISRDNSKNTLYLQMNSLRAEDTAVYYCARGYFHGMDYWGQGTLVTVSS VL: DIVLTQSPATLSLSPGERATLSCRASQSVSFDYLGWYQQKPGQAPRLLIYGASNRATGVPARFSGSGSGTDFTLTISSLEPEDFATYYCFQYLIVPFTFGQGTKVEIKR", "nM", 0.02]
]}

Below: the item to evaluate.
Prompt line: Which value of Kd has been reported for MOR07919 Fab (Fab, V domains shown, carries two C-terminal tags (FLAG and Strep-tag II); also called Fab MOR07919) VH: QVQLVQSGAEVKKPGESLKISCKGSGYSFTNYWISWVRQMPGKGLEWMGFIYPDDSYTRYSPSFQGQVTISADKSISTAYLQWSSLKASDTAMYYCARFSYRHYLDMDDHWGQGTLVTVSS VL: DIELTQPPSVSVAPGQTARISCSGDSLGSKYVHWYQQKPGQAPVLVIYRDNKRPSGIPERFSGSNSGNTATLTISGTQAEDEADYYCQSYDATEFTYVFGGGTKLTVLG in the records?
Response line: 0.27

The reported numbers originate from patent US20120034215A1.
